System: Staphylococcus aureus
assay notes: Antibacterial activity against Staphylococcus aureus UC9218 in presence of 10% human serum
Type: functional
quantity kind: MIC

Sample `CC(C)Sc1ccc(C(=O)n2[nH]c(=O)c3cc(Br)ccc32)cn1` — what was its MIC?
> 128 µg/mL

Try this compound next: `N#Cc1ccc2c(c1)c(=O)[nH]n2C(=O)c1cccc(S(=O)(=O)N2CCOCC2)c1`
64 µg/mL

Try this compound next: `CN(c1ccc(Cl)cc1)S(=O)(=O)c1cccc(C(=O)n2[nH]c(=O)c3cc(Br)ccc32)c1`
> 128 µg/mL

Try this compound next: `O=C(c1cc2cccc(S(=O)(=O)c3ccccc3)c2[nH]1)n1[nH]c(=O)c2cc(Br)ccc21`
128 µg/mL

Try this compound next: `N#Cc1ccc2c(c1)c(=O)[nH]n2C(=O)c1cncc(SCc2ccccc2)n1`
> 128 µg/mL

Try this compound next: `N#Cc1ccc2c(c1)c(=O)[nH]n2C(=O)c1cccc(S(=O)(=O)N2CCc3ccccc32)c1`
8 µg/mL

Try this compound next: `O=C(c1cnc(SCc2ccccc2)cn1)n1[nH]c(=O)c2cc(Br)ccc21`
> 128 µg/mL

Try this compound next: `O=C(c1cccc(S(=O)(=O)N2CCc3cc(Cl)ccc32)c1)n1[nH]c(=O)c2ccc(Br)cc21`
> 128 µg/mL

Try this compound next: `N#Cc1ccc2c(c1)c(=O)[nH]n2C(=O)c1cnc(SCc2ccccc2)cn1`
> 128 µg/mL

---

System: Staphylococcus aureus
assay notes: Antibacterial activity against Staphylococcus aureus UC9218
Format: functional
quantity kind: MIC (µg/mL)

Solved cases below.
structure notation	system	numeric readout
N#Cc1ccc2c(c1)c(=O)[nH]n2C(=O)c1cc2ccccc2[nH]1	Staphylococcus aureus	64
O=C(c1cccc(S(=O)(=O)N2CCc3ccccc32)c1)n1[nH]c(=O)c2cc(Br)ccc21	Staphylococcus aureus	8
O=C(c1ccc(S(=O)(=O)N2CCc3cc(Cl)ccc32)cc1)n1[nH]c(=O)c2cc(Cl)ccc21	Staphylococcus aureus	16
N#Cc1ccc2c(c1)c(=O)[nH]n2C(=O)c1cc2cccc(S(=O)(=O)c3ccccc3)c2[nH]1	Staphylococcus aureus	16
N#Cc1ccc2c(c1)c(=O)[nH]n2C(=O)c1cccc(S(=O)(=O)N2CCOCC2)c1	Staphylococcus aureus	64
N#Cc1ccc2c(c1)c(=O)[nH]n2C(=O)c1cccc(S(=O)(=O)N2CCc3ccccc32)c1	Staphylococcus aureus	0.5
O=C(c1cncc(SCc2ccccc2)n1)n1[nH]c(=O)c2cc(Br)ccc21	Staphylococcus aureus	32
O=C(c1cccc(S(=O)(=O)N2CCc3cc(Cl)ccc32)c1)n1[nH]c(=O)c2cc(OC(F)(F)F)ccc21	Staphylococcus aureus	4
Cn1c(C(=O)n2[nH]c(=O)c3cc(C#N)ccc32)cc2ccccc21	Staphylococcus aureus	64
O=C(c1ccc(S(=O)(=O)N2CCc3cc(Cl)ccc32)cc1)n1[nH]c(=O)c2cc(Br)ccc21	Staphylococcus aureus	8

P = O=C(c1cc2cccc(S(=O)(=O)c3ccccc3)c2[nH]1)n1[nH]c(=O)c2cc(Br)ccc21
Q = O=C(c1cccc(S(=O)(=O)N2CCc3cc(Cl)ccc32)c1)n1[nH]c(=O)c2cc(Br)ccc21
Compare reported MIC values for P and Q . Which is lower? The response must carry the label of the picked entry.
Q

a = O=C(c1cccc(S(=O)(=O)N2CCc3cc(Cl)ccc32)c1)n1[nH]c(=O)c2cc(C(F)(F)F)ccc21
b = N#Cc1ccc2c(c1)c(=O)[nH]n2C(=O)c1ccc(S(=O)(=O)N2CCc3cc(Cl)ccc32)cc1
c = Cc1ccc2c(c1)c(=O)[nH]n2C(=O)c1cccc(S(=O)(=O)N2CCc3cc(Cl)ccc32)c1
d = Cn1c(C(=O)n2[nH]c(=O)c3cc(C#N)ccc32)cc2cccc(S(=O)(=O)c3ccccc3)c21
e = Cn1c(C(=O)n2[nH]c(=O)c3cc(Br)ccc32)cc2cccc(S(=O)(=O)c3ccccc3)c21
Endpoint returns the given compounds ordered by ascending MIC. Please express your ranking as an ordered list of the labels.
e, d, a, c, b
(e: 2 µg/mL, d: 4 µg/mL, a: 8 µg/mL, c: 16 µg/mL, b: 64 µg/mL)

Source of measurements: ChEMBL document CHEMBL1152154
